System: Ceramide synthase
Test: Ceramide synthase of MDCK homogenate
Format: biochemical, canine
Conditions: 50 μM
Marks after values point to notes of the source that are not given here.
measuredParameter: Ceramide Synthase, enzyme activity (% of control)

Use the examples below as a reference point.
# molecule, reportedResult
records = [
    ("CCCCCCCCCCCCCCCC(=O)NC(CN1CCCC1)C(O)c1ccccc1 (racemic) [BML-130]", "106 ± 29 % of control"),
    ("CCCCCCCCCCCCCCCC(=O)NC(CN1CCCC1)C(O)c1ccccc1 (racemic) [BML-129]", "102 ± 1 % of control"),
]

input: Supply recorded Ceramide Synthase, enzyme activity (% of control) for CCCCCCCCCCCCCC=CC(O)C(CN1CCCC1)NC(=O)CCCCCCCCCCCCCCC [IV-231B, D-threo-1-pyrrolidino-1-deoxyceramide] here.
output: 71 ± 18^a % of control

input: Supply recorded Ceramide Synthase, enzyme activity (% of control) for CCCCCCCCCC(=O)N[C@H](CN1CCOCC1)[C@H](O)c1ccccc1 [PDMP, reference compound] here.
output: 66 ± 9^a % of control

Reference source: patent US6916802B2
